ASSAY METHOD TEXT: folding stability dG unfold (combined trypsin and chymotrypsin); higher = more stable
Overview of reported folding stability dG unfold across a group of sequences:
All answers are understood in kcal/mol, so give the number only.

{"SEQUENCE TEXT": "SAGGSAGGSAGDDGSDLPVVDLKVSISPFVRPLPNGEEVTVWKVLVENPGSSSRSEFYFGSAGGSAGGSAGG [r17_59_TrMRF]", "folding stability dG unfold / kcal/mol": 0.283}

Problem: Any idea what its folding stability dG unfold is? The sequence is SMTLVGTTTLPNATVTTYKNETKYIVLTYDPVEAGEPAAVSYVEKYEGNKVVKKKKVAPEEIEKAIEELLSA [r9_57_JUSTAS]
Result: 0.247

Problem: Please report the recorded folding stability dG unfold for SAGGMTVTLEIEIPAEELSEEELKALLEELFPNAEVTVERLPDGTLRITIRVEVPPAPPEVVVLPDKSAGGS [r16_535_TrROS_Hall] .
Result: 2.88

----------
ASSAY METHOD TEXT: folding stability dG unfold from trypsin proteolysis; higher = more stable
MEASUREMENT KIND: folding stability dG unfold (kcal/mol)
Your answer should be a plain number; it is taken to be in kcal/mol.

{"SEQUENCE TEXT": "SAGGSAGGSAEKVITVWIPLPPGQGVDEIAKEIARYLGFPNIKIDNIQYDPEDGWYQITFKLSAGGSAGGSA [r18_481_TrROS]", "MEASUREMENT KIND": "folding stability dG unfold", "NUMERIC RESULT": 3.48}
{"SEQUENCE TEXT": "SAGGIRIDDEGMIQIYFPGWRHTIPIKPNLEITEITIPDDGYIKITFRIPGKTVKHEFPMLPPGQEISAGGS [r16_635_TrROS]", "MEASUREMENT KIND": "folding stability dG unfold", "NUMERIC RESULT": 2.35}
{"SEQUENCE TEXT": "SAGGSAGGSAGGPNIKIKDVHEHPPEDGNPIVMFEIKAKDDDGEKVYIIITPDKIHIMPISAGGSAGGSAGG [r7_960_TrROS]", "MEASUREMENT KIND": "folding stability dG unfold", "NUMERIC RESULT": 1}
{"SEQUENCE TEXT": "SAGGSAGGATTEINLPLKVPGSGVTITKMTYDPNKDVYFVTATFPDGTKKTIKVKSLEELKKLLSAGGSAGG [r6_548_JUSTAS]", "MEASUREMENT KIND": "folding stability dG unfold", "NUMERIC RESULT": 3.83}
{"SEQUENCE TEXT": "SAGGSAGGSEEELKKLLDNIKEVKVVENENGEKYVVFTVTDKNGKKITIVAKSPEARELAKKLSAGGSAGGS [r12_466_TrROS_Hall]", "MEASUREMENT KIND": "folding stability dG unfold", "NUMERIC RESULT": 1.45}

Problem: Which folding stability dG unfold is listed for SAGGSAMPGMTLQELLDAIRALLPPGARARIYVRNPDGEVIELTDLDDITVEDLENAEIRIEIEPVSAGGSA [r15_144_TrROS_Hall] ?
Result: 3.7

Problem: What value of folding stability dG unfold has been recorded for this entry: SAGGSAGGSAGGMVVEVVELPDGQLVVRAGPVGYAVVFNGEEVTLFELPPDAEVELLPFSAGGSAGGSAGGS [r10_637_TrMRF]
Result: 1.1

Problem: Requested read-out: folding stability dG unfold. Entry: SAGGEKVTVTVTTETKTVTVTVYKAPAPKFKVTEITLELDENGNLRLTIKLENGETLEFDSLEDLLAALSAG [r5_618_TrROS_Hall]
Result: 2.77

Problem: // query folding stability dG unfold value for entry SAGGSAMIKIKLPNGEVAEIELSPDGKKVLIRYKDGSIEEIEIKDGKITKIKPLPNAPPNAEIVEVSAGGSA [r15_709_TrROS_Hall]
Result: 1.92

Problem: Look up folding stability dG unfold: FEELRNLPGLSLTPLAEEGEVRVYRLSLPPSVLAARGLPGVTVTVTVFPDGSYTVLPDDVPALEAAGLVVES [r1_256_JUSTAS]
Result: 1.05

Problem: May I ask what folding stability dG unfold has been recorded for SAGGSAKDEKVVVIVRREVRLRSRPKVDLGEGNPRVEFESSVEVRVPFLVLPEDDPVARELRELEGSAGGSA [r15_470_TrMRF] ?
Result: -0.46

Problem: What value of folding stability dG unfold has been recorded for this entry: SAGGSAGGSAGGKKTINVEIVKIEVTKNKKTNEYTVKIYIKDTGKTITLTVKPGDIIKISAGGSAGGSAGGS [r10_819_TrROS_Hall]
Result: 1.42

Problem: Which folding stability dG unfold value is on record for SAGGMIIIEGMSEEEIKNLIKEAIKKGEKVKKIVIRVNGKLYLITVDAKTKKITVEEIPLEELKKKKSAGGS [r16_481_TrROS_Hall] ?
Result: 0.692

Problem: Using the record for SAGGSSSMVTRTPSTSTVTVKRGNGPVTVSLPTTVVTRPDGSRTLETTVDTKDPAGNPAATTVTPAPSAGGS [r16_581_JUSTAS] , report its folding stability dG unfold.
Result: 0.0362

Problem: Give the measured folding stability dG unfold of SAGGSAGGSAGKIKVEKDKKTNEYRVTIELFDKNGKPVKKIEITVKKEDLPKIKELLKKLSAGGSAGGSAGG [r11_77_TrROS_Hall] .
Result: 2.96

Problem: Request the reported folding stability dG unfold associated with SAGMVIKVEVIYNGKKYTIEISEEQLKELLEKLKPGDEVEIEINGEKVLVRVEVVEPPEPSEEELKALKSAG [r5_669_TrROS_Hall]
Result: 0.944

Problem: Query: folding stability dG unfold; subject: SAGGSAMYEVTEEKDPNSDYTTVTITFPNGATVTITYNPKTNTITADVDPAVDPEVAAAAAKAVLSSAGGSA [r15_511_JUSTAS]
Result: 1.92

----------
ASSAY METHOD TEXT: folding stability dG unfold from trypsin proteolysis; higher = more stable
Is folding stability dG unfold at least 1 kcal/mol? Then Y. If not, N.

Problem: Does folding stability dG unfold meet or surpass 1 kcal/mol for SAEKKVLVKVKIEVFNEDGELVEELELEVEMSAEEVKKKIKEELLKLLKEKYPDKPLTIKVEVEVKELPSAG [r14_570_TrROS_Hall] ?
Result: Y

Problem: Given the entry MEEEEKKKAETPEIPEEVAREKALEVARELGLEEIEEIEVLSASPEGYVTVRITLPTGGEVEITIPISELES [r1_435_JUSTAS] , answer whether its folding stability dG unfold meets or surpasses 1 kcal/mol.
Result: Y

Problem: Kindly determine if folding stability dG unfold recorded for SAGGSAGGSKKALVVFYNPETGEVEVLEVEGDADLLKELFEPGTVVEIRVGDEVITIYPEDLKSAGGSAGGS [r20_36_TrMRF] is above or exactly 1 kcal/mol.
Result: Y

Problem: Dear colleague, could you confirm whether SAGGSAGGSAGLEVPPGVPVKIPVVYVDKENDYVIVTELTITPDSGEIFYDPKIIPKKELSAGGSAGGSAGG [r11_468_TrMRF] has folding stability dG unfold at or above 1 kcal/mol?
Result: N

Problem: Quick check, folding stability dG unfold >= 1 kcal/mol? SAGGSAGGSAGRRRVFFTPDGTLIVVDELPDFVRVTRYRITPGFPRIEPVDTRVLPPGALSAGGSAGGSAGG [r11_844_TrMRF]
Result: Y

----------
ASSAY METHOD TEXT: folding stability dG unfold (combined trypsin and chymotrypsin); higher = more stable
Returns class 1 if the recorded folding stability dG unfold is greater than or equal to 2 kcal/mol, and class 0 otherwise.

{"SEQUENCE TEXT": "SAGGSAMTTTTSTDPATNKTYVTVTFPKDEALVEEVKEELKKKGIKEIKVYEFPENDLVRVEITVGSAGGSA [r2_358_JUSTAS]", "CLASS LABEL": "class 0"}

Problem: Reported folding stability dG unfold reaches at least 2 kcal/mol for SAGGSAGGSLEVKVLGIVGDKPVEVTLPAGLGELTLEEIRAAFPPGEWRLVLRDENGNETPLTSAGGSAGGS [r12_540_TrMRF] ?
Result: class 0

Problem: Is the recorded value of folding stability dG unfold equal to or greater than 2 kcal/mol for this sequence? SAGGMKIKLKNGKVIEIKKKPGYIEIKIIDKKTKKVYTYTFKSKDGKISLEDLAKKLAELPNIKEIIPSAGG [r13_579_TrROS_Hall]
Result: class 1

Problem: Determine whether this sequence has folding stability dG unfold no lower than 2 kcal/mol: SMSPEALKKANEFAEYIAEHFKNWNIEIDVEVEWDPDGEITIRAKIEMRPPPPPPPKPKRDPNGKWKWEGSA [r9_82_TrROS]
Result: class 0

Problem: Check the entry SAGKKIELTFRNPDGWMIRITIEKKPNGGFQITEITWEPYPNGRMSAKIYVPNGKTIEVNSWDDILDALSAG [r5_618_TrROS] : does folding stability dG unfold equal or exceed 2 kcal/mol?
Result: class 1
